The reported numbers originate from patent US20110288086A1.

Reported IC50 is given for each of the following compounds.
Test system: Jurkat E6-1 human T-cell lymphoma
testDescription: Tumor cell IC50, CCK-8 kit, Jurkat E6-1
Format: cell-based
experimentalConditions: E6-1 cells
Description: The inhibitory activities of the compounds on tumor cells (IC50) in vitro The IC50 (IC50, unit: μg/ml) values of the compounds on Hut78 T-Lymphocytic Leukemia cells, Jurkat E6-1 human T-cell lymphoma, PANC-1 human pancreatic cancer cells, A549 human lung cancer cells, K562 human chronicity marrow leukemic cells, Hep3B2. […]
Field note: include the unit after the figure.

Reference set (4 entries):
compound: COCCOc1cc2c(cc1OCCOC)C1=Nc3cc(Cl)ccc3C(C)N1C=N2.O=C(O)CC(O)C(=O)O (centres unmarked)
testedOn: Jurkat E6-1 human T-cell lymphoma
endpointName: IC50
reportedResult: 13.3 µg/mL
--
compound: COc1cc2c(cc1OCCCN1CCOCC1)C1=Nc3cc(Cl)ccc3CN1C=N2
testedOn: Jurkat E6-1 human T-cell lymphoma
endpointName: IC50
reportedResult: 10 µg/mL
--
compound: Br.COCCOc1cc2c(cc1OCCOC)C1=Nc3cccc(N)c3CN1C=N2
testedOn: Jurkat E6-1 human T-cell lymphoma
endpointName: IC50
reportedResult: 30.5 µg/mL
--
compound: COCCOc1cc2c(cc1OCCOC)C1=Nc3cccc(NC(C)=O)c3CN1C=N2
testedOn: Jurkat E6-1 human T-cell lymphoma
endpointName: IC50
reportedResult: 39.9 µg/mL

Note: attention shifts to another entry.
The compound COCCOc1cc2c(cc1OCCOC)C1=Nc3cc(Cl)ccc3CN1C=N2 showed IC50 equal to 5.72 µg/mL
